These molecules were tested on UniProt:O15530; IC50 is the recorded read-out.
Sequence (O15530 51-556 limits assumed): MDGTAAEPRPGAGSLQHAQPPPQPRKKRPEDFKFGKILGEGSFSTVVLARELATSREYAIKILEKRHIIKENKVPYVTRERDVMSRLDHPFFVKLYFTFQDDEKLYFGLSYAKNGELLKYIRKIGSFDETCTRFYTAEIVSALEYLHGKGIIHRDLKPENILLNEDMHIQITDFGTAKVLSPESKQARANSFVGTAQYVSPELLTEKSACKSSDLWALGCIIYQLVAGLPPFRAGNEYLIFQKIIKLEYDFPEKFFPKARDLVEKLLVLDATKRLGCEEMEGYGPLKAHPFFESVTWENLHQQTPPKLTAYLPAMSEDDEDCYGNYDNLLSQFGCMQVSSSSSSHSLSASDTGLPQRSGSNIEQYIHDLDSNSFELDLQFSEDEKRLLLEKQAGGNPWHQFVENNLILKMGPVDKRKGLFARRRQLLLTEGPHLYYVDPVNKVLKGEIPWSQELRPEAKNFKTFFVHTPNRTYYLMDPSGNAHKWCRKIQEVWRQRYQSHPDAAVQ
Reported endpoint: IC50 (µM)

[[record]]
molecule = "COCOC(C)(c1cc(-c2c[nH]c3ncc(Br)cc23)nc(N)n1)c1ccccc1C (centres unmarked) [A19]"
units_symbol = "µM"
assay_value = 1.5

[[record]]
molecule = "CCOC(=O)CCn1cc(-c2cnc3[nH]cc(-c4cc(C(C)(OCOC)c5ccccc5)nc(N)n4)c3c2)cn1 (centres unmarked) [A78]"
units_symbol = "µM"
assay_value = 0.061

[[record]]
molecule = "CC(O)(c1ccccc1)c1cc(-c2c[nH]c3ncc(-c4cnn(C(F)F)c4)cc23)nc(N)n1 (centres unmarked) [A40]"
units_symbol = "µM"
assay_value = 0.054

[[record]]
molecule = "COCOC(C)(c1ccnc(C)c1)c1cc(-c2c[nH]c3ncc(-c4cnn(C)c4)cc23)nc(N)n1 (centres unmarked) [A108]"
units_symbol = "µM"
assay_value = 0.049

[[record]]
molecule = "Cn1cc(-c2cnc3[nH]cc(-c4cc(C(C)(O)c5cccc(F)c5)nc(N)n4)c3c2)cn1 (centres unmarked) [A105]"
units_symbol = "µM"
assay_value = 0.013

[[record]]
molecule = "CCC(OCOC)(c1ccncc1)c1cc(-c2c[nH]c3ncc(Br)cc23)nc(N)n1 (centres unmarked) [A34]"
units_symbol = "µM"
assay_value = 0.17

[[record]]
molecule = "CNc1nc(-c2c[nH]c3ncc(-c4cnn(CCO)c4)cc23)cc(C(C)(O)c2ccccc2)n1 (centres unmarked) [A95]"
units_symbol = "µM"
assay_value = 0.018

[[record]]
molecule = "CCC(O)(c1ccncc1)c1cc(-c2c[nH]c3ncc(-c4cn[nH]c4)cc23)nc(N)n1 (centres unmarked) [A53]"
units_symbol = "µM"
assay_value = 0.0019

